studyTarget: HLA-A*02:03
assayText: IEDB peptide-MHC binding, purified MHC/competitive/radioactivity; filed as Kd, often an IC50 or EC50 that approximates it; bounds were set here for any values at or beyond the usual limits of such assays
recordedConditions: source organism: SARS coronavirus Tor2
experimentalReadout: log10 Kd (log10 of the value in µM)
Recall that a logarithmic scale is used here: each number is log10 of Kd in µM.

Please review the entries below; each comes with its answer.
- sequence: "LLFLVLIML"
  studyTarget: "HLA-A*02:03"
  log10 Kd: 0.14
- sequence: "NVLAWLYAA"
  studyTarget: "HLA-A*02:03"
  log10 Kd: -1.82
- sequence: "FLITGVFDI"
  studyTarget: "HLA-A*02:03"
  log10 Kd: -3.12
- sequence: "FTYASALWEI"
  studyTarget: "HLA-A*02:03"
  log10 Kd: -2.22
- sequence: "FLIVAALVFL"
  studyTarget: "HLA-A*02:03"
  log10 Kd: -0.79
- sequence: "NLWNTFTRL"
  studyTarget: "HLA-A*02:03"
  log10 Kd: -0.71
- sequence: "KIILFLTLI"
  studyTarget: "HLA-A*02:03"
  log10 Kd: -2.31
- sequence: "YASALVLLI"
  studyTarget: "HLA-A*02:03"
  log10 Kd: -2.31

// next entry
Which log10 Kd is reported with HLA-A*02:03 for this entry: "MLWCKDGHV" ?
-1.96

----------
studyTarget: HLA-B*18:01
assayText: IEDB peptide-MHC binding, purified MHC/competitive/fluorescence; filed as Kd, often an IC50 or EC50 that approximates it; bounds were set here for any values at or beyond the usual limits of such assays
recordedConditions: source organism: Human immunodeficiency virus 1
experimentalReadout: Kd (µM)
// return numeric value only (unit: µM, not printed)

- sequence: "GTEEIKSLY"
  experimentalReadout: "Kd"
  assayResult: 0.0777
- sequence: "RSLFNTIATLY"
  experimentalReadout: "Kd"
  assayResult: 0.0886

Consider the record given below.
Form field: reported Kd of "KSLFNTIATLY"
0.284

----------
studyTarget: HLA-C*07:02
assayText: IEDB peptide-MHC binding, purified MHC/direct/fluorescence; filed as Kd, often an IC50 or EC50 that approximates it; bounds were set here for any values at or beyond the usual limits of such assays
recordedConditions: source organism: Yellow fever virus
experimentalReadout: Kd

I would be grateful if you could share the reported Kd for "YVIRDLAAM" .
0.59 µM

----------
studyTarget: HLA-B*15:02
assayText: IEDB peptide-MHC binding, purified MHC/competitive/fluorescence; filed as Kd, often an IC50 or EC50 that approximates it; bounds were set here for any values at or beyond the usual limits of such assays
recordedConditions: source organism: Venezuelan equine encephalitis virus
experimentalReadout: pKd
Units for pKd: none; it is -log10 of a concentration expressed in mol/L.

// fetch HLA-B*15:02 pKd for "HLWNHNQQM"
7.30

----------
studyTarget: HLA-A*02:19
assayText: IEDB peptide-MHC binding, purified MHC/direct/fluorescence; filed as Kd, often an IC50 or EC50 that approximates it; bounds were set here for any values at or beyond the usual limits of such assays
recordedConditions: source organism: Rio Mearim virus
experimentalReadout: Kd

Give its Kd value. Item: "DWMERIEDF"
≥ 20 µM

----------
studyTarget: HLA-B*07:02
assayText: IEDB peptide-MHC binding, purified MHC/competitive/fluorescence; bounds were set here for any values at or beyond the usual limits of such assays
recordedConditions: source organism: Zaire ebolavirus
Parameter pIC50: see the listing below.
Conceptually, pIC50 converts a concentration in mol/L into minus its log10.

- sequence: "RTAKVKNEV"
  assayResult: 4.99
- sequence: "RPIQNVPGP"
  assayResult: 4.54
- sequence: "RPQKIWMAP"
  assayResult: 5.15

Continue with the sequence presented below.
Give HLA-B*07:02 pIC50 for "SNRTPTVAP"
4.38

----------
studyTarget: HLA-B*46:01
assayText: IEDB peptide-MHC binding, purified MHC/direct/fluorescence; filed as Kd, often an IC50 or EC50 that approximates it; bounds were set here for any values at or beyond the usual limits of such assays
recordedConditions: source organism: Escherichia coli O157:H7
pKd: −log10 of the molar value.
experimentalReadout: pKd

Requested field: pKd. Item: "YLGTPNNTY"
≤ 4.70

----------
studyTarget: HLA-A*24:03
assayText: IEDB peptide-MHC binding, purified MHC/competitive/fluorescence; filed as Kd, often an IC50 or EC50 that approximates it; bounds were set here for any values at or beyond the usual limits of such assays
recordedConditions: source organism: Entamoeba histolytica HM-1:IMSS
pKd: −log10 of the molar value.
experimentalReadout: pKd

Give the measured pKd of "IGKMNKHYK" .
≤ 4.70

----------
studyTarget: HLA-A*02:01
assayText: IEDB peptide-MHC binding, purified MHC/competitive/fluorescence; bounds were set here for any values at or beyond the usual limits of such assays
recordedConditions: source organism: Sudan ebolavirus
experimentalReadout: IC50

In the examples that follow, each entry is paired with its recorded IC50.
- sequence: "LVCKDHLAS"
  studyTarget: "HLA-A*02:01"
  IC50: "≥ 185 µM"
- sequence: "ISTIGIRPS"
  studyTarget: "HLA-A*02:01"
  IC50: "≥ 116 µM"
- sequence: "QLNDTIHLH"
  studyTarget: "HLA-A*02:01"
  IC50: "39.9 µM"
- sequence: "TTLPSQNST"
  studyTarget: "HLA-A*02:01"
  IC50: "≥ 206 µM"
- sequence: "IAWIPYFGP"
  studyTarget: "HLA-A*02:01"
  IC50: "26.9 µM"
- sequence: "ASTVIYRGV"
  studyTarget: "HLA-A*02:01"
  IC50: "7.44 µM"

Data request, read-out IC50, for "RSGVPPKVV"
≥ 80.2 µM

Entry under review: "NGLITSTVT" . Reported IC50?
≥ 118 µM

Sample "VMATEEPTT" — what was its IC50?
≥ 144 µM

----------
studyTarget: HLA-A*02:01
assayText: IEDB peptide-MHC binding, purified MHC/competitive/radioactivity; filed as Kd, often an IC50 or EC50 that approximates it; bounds were set here for any values at or beyond the usual limits of such assays
recordedConditions: source organism: Hepatitis B virus subtype adw2
experimentalReadout: Kd

Could you share which Kd value was measured for "LVVDFSQFSR" ?
≥ 35 µM

----------
studyTarget: HLA-A*02:16
assayText: IEDB peptide-MHC binding, purified MHC/competitive/fluorescence; filed as Kd, often an IC50 or EC50 that approximates it; bounds were set here for any values at or beyond the usual limits of such assays
recordedConditions: source organism: Entamoeba histolytica HM-1:IMSS
pKd: −log10 of the molar value.
experimentalReadout: pKd

Quick check: pKd of "IGKMNKHYK" ?
≤ 4.70

----------
# pKd listing for each entry below
studyTarget: HLA-A*68:02
assayText: IEDB peptide-MHC binding, purified MHC/competitive/radioactivity; filed as Kd, often an IC50 or EC50 that approximates it; bounds were set here for any values at or beyond the usual limits of such assays
recordedConditions: source organism: Homo sapiens
pKd field: float, defined as -log10 of concentration (mol/L).

- sequence: "ELRSKREQEV"
  pKd: 5.60
- sequence: "ILKNSQGEEV"
  pKd: 5.65
- sequence: "EMRQKHSQAV"
  pKd: 6.29

Now consider a different sequence.
So what's the measured pKd for this one? "LLNVKMALDI"
6.00

----------
As shown below, each of these sequences has a reported Kd value.
studyTarget: HLA-B*46:01
assayText: IEDB peptide-MHC binding, purified MHC/competitive/fluorescence; filed as Kd, often an IC50 or EC50 that approximates it; bounds were set here for any values at or beyond the usual limits of such assays
recordedConditions: source organism: Cryptosporidium parvum Iowa II

- sequence: "GFPFFIMPK"
  Kd: "≥ 20 µM"

We now examine a further sequence.
Item "KIVPLPPMY" has what recorded Kd?
≥ 20 µM

----------
studyTarget: HLA-A*02:12
assayText: IEDB peptide-MHC binding, purified MHC/competitive/fluorescence; filed as Kd, often an IC50 or EC50 that approximates it; bounds were set here for any values at or beyond the usual limits of such assays
recordedConditions: source organism: Cowpox virus
experimentalReadout: Kd (nM)
Give the quantity in nM, number only.

For the sequence shown here, "NMNNDSYYF" , give the reported Kd.
76.5

----------
studyTarget: HLA-C*03:03
assayText: IEDB peptide-MHC binding, purified MHC/direct/fluorescence; filed as Kd, often an IC50 or EC50 that approximates it; bounds were set here for any values at or beyond the usual limits of such assays
recordedConditions: source organism: Mycobacterium tuberculosis H37Rv
experimentalReadout: Kd

Request - read-out Kd | tested on HLA-C*03:03 | sequence "AAAANTTAL"
≤ 1 nM

----------
studyTarget: HLA-B*40:01
assayText: IEDB peptide-MHC binding, purified MHC/competitive/fluorescence; filed as Kd, often an IC50 or EC50 that approximates it; bounds were set here for any values at or beyond the usual limits of such assays
recordedConditions: source organism: Brucella melitensis bv. 1 str. 16M
experimentalReadout: Kd

Looking for the measured Kd of "TTRAVNMEV" , can you help?
≥ 5 µM
